Hey, just so you know, these numbers are from PubChem BioAssay (NCATS).

- experiment summary: Cell Proliferation Assay against the TMD8 Cell Line (AID 651645);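 note: cells exposed to compound for 48 h before reading; 100% = DMSO and 0% = 9.2 µM bortezomib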
- condition parameters: TMD8 DLBCL cell line proliferation/viability; at 46.1 µM (top of the series)
Give measured viability (% of control) for each item. Keep answers brief.
Numbers only, in %.

Study these solved cases before continuing.
>>> experimental_result("Cc1ccc(C(N)=O)cc1Nc1nccc(-c2cn(C(C)C)c3cnccc23)n1")
5.31
>>> experimental_result("Cn1cc(-c2[nH]c3cc(NC(=O)[C@H](N)C4CCCCC4)cc4c3c2C=NNC4=O)cn1")
2.55
>>> experimental_result("COc1cc(C(C)C)c2c(c1)S(=O)(=O)N(COc1cc(=O)n3cccc(OCCN4CCCCC4)c3n1)C2=O")
0.892
>>> experimental_result("CC(=O)OCCN1C(=O)c2c(C)nc3ccc(S(=O)(=O)N4CCOCC4)cc3c2C1=O")
94.5
>>> experimental_result("CC1(O)CC(c2nc(-c3ccc4ccc(-c5ccccc5)nc4c3)c3c(N)nccn23)C1 (stereo unspecified)")
2.23

Field: viability (% of control). Fill in for each record below.
1. Cc1ccc(C(=O)Nc2cccc(C(F)(F)F)c2)cc1-c1ccc2nc(NCCN3CCOCC3)ncc2c1
2. c1cc(-c2cnn3cc(-c4ccc(OCCN5CCCCC5)cc4)cnc23)ccn1
3. COC(=O)c1ccc2c(C(=Nc3ccc(N(C)C(=O)CN4CCN(C)CC4)cc3)c3ccccc3)c(O)[nH]c2c1
4. CC(NCc1ccc2c(c1)nc(NC(=O)c1ccc(-c3cn[nH]c3)s1)n2CC(C)(C)O)C(C)(C)C (stereo unspecified)
5. C#Cc1cccc(Nc2ncnc3cc(OC)c(OCCCCCCC(=O)NO)cc23)c1

Reply:
0.164
2.17
1.41
1.7
-0.46

State the recorded viability (% of control) for every item in the following list.
1. CC[C@@H]1C(=O)N(C)c2cnc(Nc3ccc(C(=O)NC4CCC(N5CCN(CC6CC6)CC5)CC4)cc3OC)nc2N1C(C)C (stereo partly specified)
2. O=C(O)[C@H](Cc1c[nH]c2ccccc12)N1C(=O)c2ccccc2C1=O
3. Cc1cc(Nc2cc(N3CCN(C)CC3)nc(C=Cc3ccccc3)n2)n[nH]1
4. CC(C)C[C@H](NC(=O)CNC(=O)c1cc(Cl)ccc1Cl)B(O)O
5. CC(=O)c1c(C)c2cnc(Nc3ccc(N4CCNCC4)cn3)nc2n(C2CCCC2)c1=O

Reply:
[3.58, 104, 9.16, 4.52, 0.508]

For each of the compounds below, state viability (% of control).
1. N#CCNC(=O)c1ccc(-c2ccnc(Nc3ccc(N4CCOCC4)cc3)n2)cc1
2. O=C(NCCS(=O)(=O)c1ccc(C(F)(F)F)cn1)c1ccc(Cl)cc1

Reply:
[7.51, 96.1]

Provide viability (% of control) for all items below, preserving their order.
1. Cc1cc(Nc2cc(N3CCN(C)CC3)nc(Sc3ccc(NC(=O)C4CC4)cc3)n2)n[nH]1
2. O=C(c1ccc(Nc2nccc(-c3cc4ccccc4s3)n2)cc1)N1CCC(N2CCCC2)CC1

Reply:
19.5
0.477

// for each compound in input: emit viability (% of control)
1. C=CC(=O)Nc1cc2c(Nc3ccc(F)c(Cl)c3)ncnc2cc1OCCCN1CCOCC1
2. Nc1nccc(Oc2ccc(NC(=O)c3c[nH]cc(-c4ccc(F)cc4)c3=O)cc2F)c1Cl

Reply:
1. 0.581
2. 4.79

###

- Test system: CP262
- experiment summary: qHTS profiling for inhibitors of Plasmodium falciparum proliferation (AID 504749); note: nearly all actives have a fitted effect of over 60% in size
- condition parameters: P. falciparum in erythrocytes, SYBR Green DNA, 72 h; series mostly up to 28.7 µM
Results filed as inconclusive are left out. Calls of active or inactive are those of the source. Calls come from the whole dose curve; as a rule, active = well fitted inhibition curve with a large enough effect; inconclusive = small, poorly fitted or top-dose-only effect; inactive = flat fitted curve, though single readings scatter.
One label from this list, please: 1.0 (active), 0.0 (inactive)

Worked cases, answers included:
>>> category("Nc1ccc(S(=O)(=O)Nc2ncccn2)cc1")
0.0
>>> category("O=c1[nH]c(=O)n(C2CCCO2)cc1F (stereo not drawn)")
0.0

Then there is this molecule:
Task item: Please indicate how the test categorized `COC(=O)C[C@](O)(CCCC(C)(C)O)C(=O)O[C@@H]1C(OC)=C[C@]23CCCN2CCc2cc4c(cc2[C@H]13)OCO4` .
Reply: 1.0

###

- Test system: CP269
- experiment summary: qHTS profiling for inhibitors of Plasmodium falciparum proliferation (AID 504749); note: nearly all actives have a fitted effect of over 60% in size
- condition parameters: P. falciparum in erythrocytes, SYBR Green DNA, 72 h; series mostly up to 28.7 µM
- Protocol: NIH National Institute of Allergy and Infectious Diseases [NIAID] NIH Chemical Genomics Center [NCGC] […] Because mature erythrocytes lack DNA, only Plasmodium-derived DNA is detected. NCGC Assay Protocol Summary: The SYBR Green viability assay was adapted from a method described previously (Plouffe et al., 2008). […] The following morning, fluorescence intensity at 485(14) nm excitation and 535(25) nm emission wavelengths was measured on an EnVision (Perkin Elmer) plate reader. […]
Results filed as inconclusive are left out. Active and inactive are the calls of the source. Calls come from the whole dose curve; as a rule, active = well fitted inhibition curve with a large enough effect; inconclusive = small, poorly fitted or top-dose-only effect; inactive = flat fitted curve, though single readings scatter.
Outcomes you can answer with include only these: label 1 = active, label 0 = inactive

Task item: What did the test return for `Nc1ccn([C@@H]2O[C@H](CO)[C@H](O)C2(F)F)c(=O)n1` ?
Reply: label 1

Task item: Same question for O=c1[nH]c(=O)n(C2CCCO2)cc1F (configuration not stated) please.
Reply: label 0

Task item: Field entry: `COC(=O)C[C@](O)(CCCC(C)(C)O)C(=O)O[C@@H]1C(OC)=C[C@]23CCCN2CCc2cc4c(cc2[C@H]13)OCO4`
Reply: label 1

###

Give Potency for every item shown.
- experiment summary: qHTS of pediatric cancer cell lines to identify multiple opportunities for drug repurposing: Primary screen for NB1643 cells (AID 1347099); note: potency is the fitted concentration of half-maximal effect; nearly all actives have a fitted effect of over 50% in size
- condition parameters: NB1643 neuroblastoma viability, CellTiter-Glo luminescence, 48 h; series mostly up to 46 µM
- Procedure: Drug repurposing or repositioning has been offered as a strategy for drug development in oncology programs. This approach has special potential for childhood cancers and other rare or orphan diseases, where the expected return on new drug development has been a disincentive to pharmaceuticals. […] We employed a titration-based paradigm (quantitative high-throughput screening or qHTS), where all compounds were tested at multiple concentrations for their effect on cell viability. […]
Inconclusive results are not listed. Activity calls are given as the source filed them. Calls come from the whole dose curve; as a rule, active = well fitted cell-killing curve with a large enough effect; inconclusive = small, poorly fitted or top-dose-only effect; inactive = no such curve, though single readings can be large or run the other way.

>>> experimental_result("COC(=O)c1ccc2c(C(=Nc3ccc(N(C)C(=O)CN4CCN(C)CC4)cc3)c3ccccc3)c(O)[nH]c2c1")
"2350 nM (active)"
>>> experimental_result("CCS(=O)(=O)c1cccc(-c2cc(C(=O)NC3CCN(C)CC3)c(C)c3[nH]c4ncc(C)cc4c23)c1")
"526 nM (active)"
>>> experimental_result("COCCOc1ccc2c(c1)ncn2-c1ccc2cccc(N3CCC(N)CC3)c2n1")
"23500 nM (active)"

Read the next record carefully.
Task item: # get_value(readout='Potency', item= `NC(=O)Nc1cc(-c2cccc(F)c2)sc1C(=O)N[C@H]1CCCNC1` )
Reply: 526 nM (active)

###

- Test system: Zika virus NS2B-NS3 protease (linked construct)
- experiment summary: Primary screen NINDS Rhodamine qHTS for Zika virus inhibitors (AID 1347160); note: nearly all actives have a fitted effect of over 55% in size
- condition parameters: purified NS2B-NS3 protease, Rhodamine110 substrate fluorescence; series mostly up to 57.1 µM
Results filed as inconclusive are left out. The source made the active and inactive calls. The call rests on the fitted dose curve; in most records, active means well fitted inhibition curve with a large enough effect; inconclusive means small, poorly fitted or top-dose-only effect; inactive means no such curve, though single readings can be large or run the other way.
Could you please pick one outcome from this set? active, inactive

# count of solved cases: 3
>>> category("CN1CCN(Cc2ccc(NC(=O)Nc3ccc(Oc4cc(NC(=O)C5CC5)ncn4)cc3)cc2C(F)(F)F)CC1")
"inactive"
>>> category("CNC(=O)c1ccc(N2C(=S)N(c3cnc(C#N)c(C(F)(F)F)c3)C(=O)C23CCC3)cc1F")
"inactive"
>>> category("CCc1c2c(nc3ccc(O)cc13)-c1cc3c(c(=O)n1C2)COC(=O)[C@]3(O)CC")
"active"

Task item: Hi team, can someone confirm the assay call for CC1(C)CC(=O)c2c(C(F)(F)F)nn(-c3ccc(C(N)=O)c(NC4CCC(OC(=O)CN)CC4)c3)c2C1 (stereo unspecified) ?
Reply: inactive

Task item: Repeat for the following molecule: `O=C(Nc1nc2cccc(-c3ccc(CN4CCS(=O)(=O)CC4)cc3)n2n1)C1CC1`
Reply: inactive

Task item: Queued: `CC(C)(O)c1cc2nc(-c3cnc(N)nc3)nc(N3CCOCC3)c2s1`
Reply: inactive

###

- experiment summary: qHTS profiling of the MIPE4 collection as inhibitors of Plasmodium falciparum (HB3) proliferation (AID 743347);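 note: plate controls were DMSO vehicle wells for no effect and artemisinin wells for full effect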
- condition parameters: P. falciparum HB3 in erythrocytes, SYBR Green DNA, 72 h; at 28.5 µM (top of the series) unless noted
reported endpoint: growth, % of control

>>> experimental_result("CC[C@@H]1C(=O)N(C)c2cnc(Nc3ccc(C(=O)NC4CCN(C)CC4)cc3OC)nc2N1C1CCCC1")
"6.34%"

Would you mind giving growth, % of control for every compound in the list below?
1. CC=C1NC(=O)[C@H]2CSSCCC=C[C@H](CC(=O)N[C@H](C(C)C)C(=O)N2)OC(=O)[C@H](C(C)C)NC1=O
2. O=C(Nc1ncc(-c2cc(C(F)F)nn2-c2c(Cl)cccc2Cl)s1)C1CC1
3. COC(=O)c1ccc2c(C(=Nc3ccc(N(C)C(=O)CN4CCN(C)CC4)cc3)c3ccccc3)c(O)[nH]c2c1
4. COc1cc2c(Oc3ccc4[nH]c(C)cc4c3F)ncnc2cc1OCCCN1CCCC1
5. Nc1ccc(S(=O)(=O)Nc2ncccn2)cc1
6. Cc1[nH]nc2ccc(-c3cncc(OC[C@@H](N)Cc4ccccc4)c3)cc12

Reply:
1. 8.43%
2. 19.5%
3. 5.35%
4. 6.98%
5. 63.8%
6. 8.27%
